Quick reference: growth of the listed items.
Tested on: COLO 205 colon
Test: NCI-60 one-dose screen, 48 h (100 = growth as untreated, 0 = no growth, -100 = all killed)
Settings: 10 µM unless noted
Procedure: Cells are grown in 96 well plates and exposed to the test compound for 48 hours. Compounds are tested at a single concentration, which is 10^-5 M for most compounds. The reported endpoint is percent growth (GI% or GIPRCNT), where numbers from 0 - 100% represent growth inhibition, and numbers from -100% - 0 represent cell death. For example, a value of 40 represents 60% growth inhibition. A value of 0 means no net growth occurred over the course of the experiment. […]
The panel holds about 83,000 compounds, 20% with a hit somewhere; the sample as a whole holds those more often.
# output: bare number, implied unit %

>  <compound>
O=C1CSC(=O)N1Cc1cc2ccccc2nc1Cl

>  <growth (%)>
109

$$$$
>  <compound>
COc1cc(CNC(=O)Cc2ccccc2[N+](=O)[O-])ccc1OCC(=O)NO

>  <growth (%)>
104

$$$$
>  <compound>
CC(C)=CCc1c2c(c(O)c3c1O[C@]14C(=C[C@@H]5C[C@H]1C(C)(C)O[C@@]4(C/C=C(/C)C(=O)O)C5=O)C3=O)CC(O)C(C)(C)O2 (some centres undefined)

>  <growth (%)>
-67

$$$$
>  <compound>
CCOC(=O)CC(=O)CSC1=NC2C(NN1)N(C)C(=O)N2C (centres undefined)

>  <growth (%)>
108

$$$$
>  <compound>
COc1ccc(CN2C(=O)/C(=C/c3nc(CO)cs3)SC2=S)cc1

>  <growth (%)>
118

$$$$

In plain terms, COc1c([C@@H](CC(C)C)OC(C)=O)ccc2c1C(=O)OCc1cc(C)cc(O)c1O2 has a documented growth of 9.55

In plain terms, CC(=O)Nc1cccc(-n2cnc3cc(-c4ccc(O)cc4)ccc32)c1 has a documented growth of 66.3

In plain terms, C=C1C(=O)O[C@@H]2C[C@@H](C)CCC(=O)[C@](C)(OC(C)=O)C[C@H](OC(=O)/C(C)=C\C)[C@@H]12 has a documented growth of 28.6

In plain terms, CCOC(=O)C1=C(C)Nc2nc3ccccc3n2C1c1ccccc1 (centres undefined) has a documented growth of 104

---

tested on: HT29 colon; experiment: NCI-60 one-dose screen, 48 h (100 = growth as untreated, 0 = no growth, -100 = all killed); settings: 10 µM unless noted
This is part of a sample that, as a whole, favours compounds with a hit. Of some 83,000 tested, about 20% had one in any assay.
Quick reference: growth of the listed items.
# output: bare number, implied unit %

>  <compound>
C#CCOc1ccccc1C(Nc1ccccc1)c1nnnn1C1CCCCC1 (stereo not given)

>  <growth (%)>
105

$$$$

Turning to the following compound.
// growth (HT29 colon) for CN1CCN(Cc2ccc(NC(=O)c3cncc(C#Cc4cnc5ccc(O[C@H]6CCOC6)nn45)c3)cc2C(F)(F)F)CC1 = -67.8

---

tested on: HCT-116 colon; assay: NCI-60 one-dose screen, 48 h (100 = growth as untreated, 0 = no growth, -100 = all killed); conditions: 10 µM unless noted
The panel holds about 83,000 compounds, 20% with a hit somewhere; the sample as a whole holds those more often.
Quick reference: growth of the listed items.
# output: bare number, implied unit %

In plain terms, CN1CCN(c2nc(-c3cnc4ccccc4n3)cc3ccccc23)CC1 has a documented growth of 21.4

In plain terms, COc1cc(/C=N/n2cnc3oc(-c4ccccc4)cc3c2=N)cc(CN2CCOCC2)c1O has a documented growth of 29.8

In plain terms, Cc1ccc(/C=C/CC(=O)Nc2ccc(C(=O)Nc3ccc(F)cc3N)cc2)cn1 has a documented growth of 39

In plain terms, CN(C)C(=O)c1ccccc1-n1cnc2ccccc2c1=O has a documented growth of 100

In plain terms, O=C(CCCCCCN1CC(=O)N2[C@@H](c3cccc(Br)c3)c3[nH]c4ccccc4c3C[C@H]2C1=O)NO has a documented growth of 8.35

In plain terms, O=C(CSc1nnc(-c2ccc(Cl)cc2)n1-c1ccccc1)Nc1ccc(F)cc1 has a documented growth of 46

---

Quick reference: growth of the listed items.
system: SF-295 CNS; assay: NCI-60 one-dose screen, 48 h (100 = growth as untreated, 0 = no growth, -100 = all killed); conditions: 10 µM unless noted
Compounds without any hit were thinned out: in the full panel of roughly 83,000, 20% have a hit.
# output: bare number, implied unit %

Solved cases below.
>  <query.smiles>
COc1ccc2c(C3=C(c4cn(C)c5ccccc45)C(=O)NC3=O)coc2c1

>  <units.label>
%

>  <growth>
36.3

$$$$
>  <query.smiles>
Oc1ccc(CSc2nnc(-c3ccccc3)o2)c2cccnc12

>  <units.label>
%

>  <growth>
2.18

$$$$
>  <query.smiles>
CCNC(=O)Oc1ccc(/C(=C(/C)c2ccccc2)c2ccc(OCCN3CCCC3)cc2)cc1

>  <units.label>
%

>  <growth>
60.5

$$$$
>  <query.smiles>
C=CCn1c(SCC(=O)Nc2ccc(OC)cc2)nnc1-c1ccc(Cl)cc1

>  <units.label>
%

>  <growth>
98.1

$$$$
>  <query.smiles>
Cc1ccc(-c2cc(-c3cccc4ccccc34)n3c(n2)nc2ccccc23)cc1

>  <units.label>
%

>  <growth>
40.9

$$$$
>  <query.smiles>
C=C(C)[C@@H]1CC[C@]2(COS(C)(=O)=O)CC[C@]3(C)[C@H](CC[C@@H]4[C@@]5(C)CCCNC(C)(C)[C@@H]5CC[C@]43C)[C@@H]12

>  <units.label>
%

>  <growth>
-40.1

$$$$
>  <query.smiles>
CCOC(=O)c1c(NC(=O)c2cccc(C(F)(F)F)c2)sc2c(CN3CCN(C)CC3)c(O)ccc12

>  <units.label>
%

>  <growth>
-81

$$$$
>  <query.smiles>
O=C(CCCCCCN1CC(=O)N2[C@@H](c3cccc(Cl)c3)c3[nH]c4ccccc4c3C[C@H]2C1=O)NO

>  <units.label>
%

>  <growth>
52

$$$$

Turning to the following compound.
In plain terms, Cc1cc(F)cc(NS(=O)(=O)c2ccc(-c3cnc(C4CC4)o3)cc2)c1 has a documented growth of -5.64

---

test system: SK-MEL-28 melanoma; test: NCI-60 one-dose screen, 48 h; settings: 10 µM unless noted
About 83,000 compounds went through this panel and 20% of them were active in at least one assay; those are over-represented in the sample as a whole. The source made the active and inactive calls. The calls were made as follows: active = growth percent below 10; inactive = the rest.
Can you answer with just one of these options? Yes for active, No for inactive

>  <molecule>
COc1cc2c3c(n(CCCN4CCC[C@H]4C(N)=O)c(=O)c2cc1OC)-c1cc2c(cc1C3=O)OCO2

>  <category>
No

$$$$
>  <molecule>
NS(=O)(=O)c1ccc(Nc2nc(N/N=C/c3ccc([N+](=O)[O-])cc3)nc(Nc3ccccc3)n2)cc1

>  <category>
No

$$$$
>  <molecule>
O=C1NC(=O)/C(=C/c2ccc(OCc3cc4ccccc4nc3Cl)cc2)S1

>  <category>
No

$$$$
>  <molecule>
COc1cc(/C=N/n2cnc3oc(-c4ccccc4)cc3c2=N)cc(CN2CCCCC2)c1O

>  <category>
Yes

$$$$
>  <molecule>
O=C(CCCCCCN1CC(=O)N2[C@@H](c3cccc(Cl)c3)c3[nH]c4ccccc4c3C[C@H]2C1=O)NO

>  <category>
No

$$$$

Task: Given O=C1Nc2ccc(Br)cc2/C1=N\c1nnc(-c2ccc(Cl)cc2)o1 , state the outcome it received in this test.
Result: No

Task: Given C(=C(\C1=NCCN1)n1cnc2ccccc21)/c1ccc2ccccc2c1 , state the outcome it received in this test.
Result: No

Task: Given COc1ccccc1/C=C/C(=O)c1nnn(-c2ccc(C(=O)O)cc2)c1C , state the outcome it received in this test.
Result: No

Task: Given C#C[C@]1(O)CC[C@H]2[C@@H]3CC=C4c5sc(-c6cccc(F)c6)nc5CC[C@]4(C)[C@H]3CC[C@@]21C , state the outcome it received in this test.
Result: No

Task: Given C#C[C@]1(O)CC[C@H]2[C@@H]3CC=C4c5sc(C6CCOCC6)nc5CC[C@]4(C)[C@H]3CC[C@@]21C , state the outcome it received in this test.
Result: No

Task: Given COc1ccc(-c2nc3cc(Cl)c(Cl)cc3n2CC(=O)N=Nc2c(O)[nH]c3ccccc23)cc1 , state the outcome it received in this test.
Result: No

Task: Given O=C1CSC(=O)N1Cc1cc2ccccc2nc1Cl , state the outcome it received in this test.
Result: No

Task: Given CCN1C/C(=N\S(=O)(=O)c2ccccc2)N(CC)C1=S , state the outcome it received in this test.
Result: No

Task: Given CCN1C(=O)N(CC)C2SC(N/N=C/c3ccc(OC)cc3)=NC21 (stereo not given) , state the outcome it received in this test.
Result: No

Task: Given C/C(=N\NC(=O)CSc1nc2sc3c(c2c(=O)n1-c1ccccc1)CCC(C)C3)c1ccc(Cl)cc1 (stereo not given) , state the outcome it received in this test.
Result: No

Task: Given COC(=O)Nc1ccc(-c2nc(-c3cccc(O)c3)c(-c3ccnc(Br)c3)[nH]2)cc1 , state the outcome it received in this test.
Result: No

Task: Given Cn1cc(-c2nnc(N)nc2-c2cn(C)c3ccc(F)cc23)c2cc(F)ccc21 , state the outcome it received in this test.
Result: No

Task: Given O=C1CC2(CCOCC2)Oc2ncccc21 , state the outcome it received in this test.
Result: Yes

Task: Given Cn1nc(Nc2ccccc2)c(C(=O)NN)c1N , state the outcome it received in this test.
Result: No

Task: Given COc1ccc(CCN2C(=O)/C(=C/c3nc(CO)cs3)SC2=S)cc1 , state the outcome it received in this test.
Result: No
